Source listed as paper PMC4373589.

Recorded measurements of pKi, one per entry
target: delta opioid receptor (DOR) (Mus musculus); assay: DOR competitive radioligand binding
Sequence (P32300 whole entry): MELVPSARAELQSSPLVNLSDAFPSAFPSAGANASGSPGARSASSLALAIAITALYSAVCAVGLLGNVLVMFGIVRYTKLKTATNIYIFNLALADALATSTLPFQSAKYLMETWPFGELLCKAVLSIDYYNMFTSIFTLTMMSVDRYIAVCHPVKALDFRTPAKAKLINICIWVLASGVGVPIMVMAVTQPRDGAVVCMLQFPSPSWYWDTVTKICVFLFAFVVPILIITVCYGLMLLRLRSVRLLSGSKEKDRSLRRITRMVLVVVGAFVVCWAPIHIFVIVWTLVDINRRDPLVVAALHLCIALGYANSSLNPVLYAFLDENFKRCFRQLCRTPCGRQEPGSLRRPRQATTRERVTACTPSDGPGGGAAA
pKi: −log10 of the molar value.
value_type: pKi

[[record]]
smiles_record = "O=C(O[C@@]12CCC(=O)[C@@H]3Oc4c(O)ccc5c4[C@@]31CCN(CC1CC1)[C@@H]2C5)c1ccccn1"
target_or_system = "delta opioid receptor (DOR) (Mus musculus)"
value_type = "pKi"
qualifier_symbol = "="
value_observed = 6.93

[[record]]
smiles_record = "O=C(O[C@@]12CCC(=O)[C@@H]3Oc4c(O)ccc5c4[C@@]31CCN(CC1CC1)[C@@H]2C5)c1cnc2ccccc2c1"
target_or_system = "delta opioid receptor (DOR) (Mus musculus)"
value_type = "pKi"
qualifier_symbol = "="
value_observed = 6.09

[[record]]
smiles_record = "O=C(O[C@@]12CCC(=O)[C@@H]3Oc4c(O)ccc5c4[C@@]31CCN(CC1CC1)[C@@H]2C5)c1cc2ccccc2cn1"
target_or_system = "delta opioid receptor (DOR) (Mus musculus)"
value_type = "pKi"
qualifier_symbol = "<"
value_observed = 5.00

[[record]]
smiles_record = "O=C(N[C@@]12CCC(=O)[C@@H]3Oc4c(O)ccc5c4[C@@]31CCN(CC1CC1)[C@@H]2C5)c1ccccc1"
target_or_system = "delta opioid receptor (DOR) (Mus musculus)"
value_type = "pKi"
qualifier_symbol = "="
value_observed = 7.24

[[record]]
smiles_record = "O=C(O[C@@]12CCC(=O)[C@@H]3Oc4c(O)ccc5c4[C@@]31CCN(CC1CC1)[C@@H]2C5)c1cccnc1"
target_or_system = "delta opioid receptor (DOR) (Mus musculus)"
value_type = "pKi"
qualifier_symbol = "="
value_observed = 6.77

[[record]]
smiles_record = "O=C(N[C@@]12CCC(=O)[C@@H]3Oc4c(O)ccc5c4[C@@]31CCN(CC1CC1)[C@@H]2C5)c1cnc2ccccc2c1"
target_or_system = "delta opioid receptor (DOR) (Mus musculus)"
value_type = "pKi"
qualifier_symbol = "="
value_observed = 8.83

[[record]]
smiles_record = "O=C(CNC(=O)c1ccccn1)N[C@@]12CCC(=O)[C@@H]3Oc4c(O)ccc5c4[C@@]31CCN(CC1CC1)[C@@H]2C5"
target_or_system = "delta opioid receptor (DOR) (Mus musculus)"
value_type = "pKi"
qualifier_symbol = "="
value_observed = 9.43

[[record]]
smiles_record = "O=C(N[C@@]12CCC(=O)[C@@H]3Oc4c(O)ccc5c4[C@@]31CCN(CC1CC1)[C@@H]2C5)c1cccnc1"
target_or_system = "delta opioid receptor (DOR) (Mus musculus)"
value_type = "pKi"
qualifier_symbol = "="
value_observed = 7.40

[[record]]
smiles_record = "O=C(O[C@@]12CCC(=O)[C@@H]3Oc4c(O)ccc5c4[C@@]31CCN(CC1CC1)[C@@H]2C5)c1ccncc1"
target_or_system = "delta opioid receptor (DOR) (Mus musculus)"
value_type = "pKi"
qualifier_symbol = "="
value_observed = 6.39

[[record]]
smiles_record = "O=C(N[C@@]12CCC(=O)[C@@H]3Oc4c(O)ccc5c4[C@@]31CCN(CC1CC1)[C@@H]2C5)c1cc2ccccc2cn1"
target_or_system = "delta opioid receptor (DOR) (Mus musculus)"
value_type = "pKi"
qualifier_symbol = "="
value_observed = 7.60

[[record]]
smiles_record = "O=C(O[C@@]12CCC(=O)[C@@H]3Oc4c(O)ccc5c4[C@@]31CCN(CC1CC1)[C@@H]2C5)c1ccccc1"
target_or_system = "delta opioid receptor (DOR) (Mus musculus)"
value_type = "pKi"
qualifier_symbol = "<"
value_observed = 5.00

[[record]]
smiles_record = "O=C(O[C@@]12CCC(=O)[C@@H]3Oc4c(O)ccc5c4[C@@]31CCN(CC1CC1)[C@@H]2C5)c1ccc2ccccc2n1"
target_or_system = "delta opioid receptor (DOR) (Mus musculus)"
value_type = "pKi"
qualifier_symbol = "="
value_observed = 7.64

[[record]]
smiles_record = "O=C(N[C@@]12CCC(=O)[C@@H]3Oc4c(O)ccc5c4[C@@]31CCN(CC1CC1)[C@@H]2C5)c1ccccn1"
target_or_system = "delta opioid receptor (DOR) (Mus musculus)"
value_type = "pKi"
qualifier_symbol = "="
value_observed = 7.02

[[record]]
smiles_record = "O=C(O[C@@]12CCC(=O)[C@@H]3Oc4c(O)ccc5c4[C@@]31CCN(CC1CC1)[C@@H]2C5)c1ccc2ccccc2c1"
target_or_system = "delta opioid receptor (DOR) (Mus musculus)"
value_type = "pKi"
qualifier_symbol = "="
value_observed = 6.04

[[record]]
smiles_record = "O=C(CCc1ccccn1)N[C@@]12CCC(=O)[C@@H]3Oc4c(O)ccc5c4[C@@]31CCN(CC1CC1)[C@@H]2C5"
target_or_system = "delta opioid receptor (DOR) (Mus musculus)"
value_type = "pKi"
qualifier_symbol = "="
value_observed = 8.04

[[record]]
smiles_record = "O=C(Cc1ccccn1)N[C@@]12CCC(=O)[C@@H]3Oc4c(O)ccc5c4[C@@]31CCN(CC1CC1)[C@@H]2C5"
target_or_system = "delta opioid receptor (DOR) (Mus musculus)"
value_type = "pKi"
qualifier_symbol = "="
value_observed = 8.41

[[record]]
smiles_record = "O=C(N[C@@]12CCC(=O)[C@@H]3Oc4c(O)ccc5c4[C@@]31CCN(CC1CC1)[C@@H]2C5)c1ccc2ccccc2c1"
target_or_system = "delta opioid receptor (DOR) (Mus musculus)"
value_type = "pKi"
qualifier_symbol = "="
value_observed = 7.98

[[record]]
smiles_record = "O=C(N[C@@]12CCC(=O)[C@@H]3Oc4c(O)ccc5c4[C@@]31CCN(CC1CC1)[C@@H]2C5)c1ccncc1"
target_or_system = "delta opioid receptor (DOR) (Mus musculus)"
value_type = "pKi"
qualifier_symbol = "="
value_observed = 7.96

[[record]]
smiles_record = "O=C(N[C@@]12CCC(=O)[C@@H]3Oc4c(O)ccc5c4[C@@]31CCN(CC1CC1)[C@@H]2C5)c1ccc2ccccc2n1"
target_or_system = "delta opioid receptor (DOR) (Mus musculus)"
value_type = "pKi"
qualifier_symbol = "="
value_observed = 7.82


###

Ki data for kappa opioid receptor (KOR) (Mus musculus, UniProt P33534) follow.
value_type: Ki (nM)

[[record]]
smiles_record = "O=C(CCc1ccccn1)N[C@@]12CCC(=O)[C@@H]3Oc4c(O)ccc5c4[C@@]31CCN(CC1CC1)[C@@H]2C5"
value_observed = 0.17

[[record]]
smiles_record = "O=C(N[C@@]12CCC(=O)[C@@H]3Oc4c(O)ccc5c4[C@@]31CCN(CC1CC1)[C@@H]2C5)c1ccncc1"
value_observed = 0.33

[[record]]
smiles_record = "O=C(O[C@@]12CCC(=O)[C@@H]3Oc4c(O)ccc5c4[C@@]31CCN(CC1CC1)[C@@H]2C5)c1ccncc1"
value_observed = 49.2

[[record]]
smiles_record = "O=C(O[C@@]12CCC(=O)[C@@H]3Oc4c(O)ccc5c4[C@@]31CCN(CC1CC1)[C@@H]2C5)c1ccccc1"
value_observed = 586

[[record]]
smiles_record = "O=C(Cc1ccccn1)N[C@@]12CCC(=O)[C@@H]3Oc4c(O)ccc5c4[C@@]31CCN(CC1CC1)[C@@H]2C5"
value_observed = 0.19

[[record]]
smiles_record = "O=C(N[C@@]12CCC(=O)[C@@H]3Oc4c(O)ccc5c4[C@@]31CCN(CC1CC1)[C@@H]2C5)c1ccc2ccccc2c1"
value_observed = 0.33


###

molecular target: mu opioid receptor (MOR) (Mus musculus)
Sequence (P42866 whole entry): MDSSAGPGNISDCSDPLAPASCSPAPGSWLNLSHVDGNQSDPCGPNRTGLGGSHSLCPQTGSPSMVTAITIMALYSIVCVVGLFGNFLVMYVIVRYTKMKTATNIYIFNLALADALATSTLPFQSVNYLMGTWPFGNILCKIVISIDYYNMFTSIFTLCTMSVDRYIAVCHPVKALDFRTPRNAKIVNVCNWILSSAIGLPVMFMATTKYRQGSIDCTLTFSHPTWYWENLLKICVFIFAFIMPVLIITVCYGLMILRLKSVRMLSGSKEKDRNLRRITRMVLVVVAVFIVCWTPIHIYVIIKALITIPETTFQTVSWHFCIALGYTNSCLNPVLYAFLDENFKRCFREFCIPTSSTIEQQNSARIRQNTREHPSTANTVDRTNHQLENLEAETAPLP
pKi: −log10 of the molar value.
value_type: pKi

[[record]]
compound = "O=C(N[C@@]12CCC(=O)[C@@H]3Oc4c(O)ccc5c4[C@@]31CCN(CC1CC1)[C@@H]2C5)c1cccnc1 [Compound 11]"
target_or_system = "mu opioid receptor (MOR) (Mus musculus)"
value_observed = 9.12

[[record]]
compound = "O=C(O[C@@]12CCC(=O)[C@@H]3Oc4c(O)ccc5c4[C@@]31CCN(CC1CC1)[C@@H]2C5)c1cccnc1 [Compound 3]"
target_or_system = "mu opioid receptor (MOR) (Mus musculus)"
value_observed = 8.80

[[record]]
compound = "O=C(N[C@@]12CCC(=O)[C@@H]3Oc4c(O)ccc5c4[C@@]31CCN(CC1CC1)[C@@H]2C5)c1ccccc1 [Compound 13]"
target_or_system = "mu opioid receptor (MOR) (Mus musculus)"
value_observed = 8.36

[[record]]
compound = "O=C(O[C@@]12CCC(=O)[C@@H]3Oc4c(O)ccc5c4[C@@]31CCN(CC1CC1)[C@@H]2C5)c1ccc2ccccc2c1 [Compound 9]"
target_or_system = "mu opioid receptor (MOR) (Mus musculus)"
value_observed = 6.65

